pKi: −log10 of the molar value.
Form: system (WDR5 (Homo sapiens)), quantity (pKi), values below.
reported-metric: pKi

1. CNC(=O)c1cc(S(F)(F)(F)(F)F)cc(NS(=O)(=O)c2cc(Br)cc3cccnc23)c1O [Example S67] = 7.05
2. CS(=O)(=O)c1cc(S(F)(F)(F)(F)F)cc(NS(=O)(=O)c2cc(Br)ccc2O)c1O [Example S19] = 7.00
3. COCCNS(=O)(=O)c1cc(Cl)cc(NS(=O)(=O)c2cc(Br)ccc2O)c1O [Example S31] = 6.19
4. Cc1ccsc1-c1cc(NS(=O)(=O)c2cc(Br)ccc2O)c(O)c(C(=O)O)c1 [Example J197] = 5.71
